target: NTS1 (HT-29 cells) (Homo sapiens, UniProt P30989); experiment: cell-based
Where a SMILES comes first, the peptide text is derived from it. [ ]: non-standard residue; d: D form. pGlu = O=C1CC[C@@H](C(=O)O)N1
endpoint_label: EC50 (nM)
Write the number in nM without appending the unit.

q: Look up EC50 with NTS1 (HT-29 cells) (Homo sapiens, UniProt P30989) for this molecule: CC[C@H](C)[C@H](NC(=O)[C@H](Cc1ccc(O)cc1)NC(=O)[C@@H]1CCCN1C(=O)[C@H](CCCCN)NC(=O)[C@H](CCCCN)NC(=O)[C@@H]1CCCN1C(=O)[C@H](CCCCN)NC(=O)[C@H](CC(N)=O)NC(=O)[C@H](CCC(=O)O)NC(=O)[C@H](Cc1ccc(O)cc1)NC(=O)[C@H](CC(C)C)NC(=O)[C@@H]1CCC(=O)N1)C(=O)N[C@@H](CC(C)C)C(=O)O [[K8, K9] NT] ([pGlu]LYENKPKKPYIL-OH)
a: 20.2

q: Reported EC50 for NTS1 (HT-29 cells) (Homo sapiens, UniProt P30989), given CC[C@H](C)[C@H](NC(=O)[C@H](Cc1ccc(O)cc1)NC(=O)[C@@H]1CCCN1C(=O)[C@H](CCCNC(=N)N)NC(=O)[C@H](CCCNC(=N)N)NC(=O)[C@@H]1CCCN1C(=O)[C@H](CCC(=O)O)NC(=O)[C@H](CC(N)=O)NC(=O)[C@H](CCC(=O)O)NC(=O)[C@H](Cc1ccc(O)cc1)NC(=O)[C@H](CC(C)C)NC(=O)[C@@H]1CCC(=O)N1)C(=O)N[C@@H](CC(C)C)C(=O)O [[E6] NT] ?
a: 4.7

q: Any idea what EC50 came out for CC[C@H](C)[C@H](NC(=O)[C@H](Cc1ccc(O)cc1)NC(=O)[C@@H]1CCCN1C(=O)[C@H](CCCNC(=N)N)NC(=O)[C@H](CCCNC(=N)N)NC(=O)[C@@H]1CCCN1C(=O)[C@H](CCCCN)NC(=O)[C@H](CC(N)=O)NC(=O)[C@H](CCCCN)NC(=O)[C@H](Cc1ccc(O)cc1)NC(=O)[C@H](CC(C)C)NC(=O)[C@@H]1CCC(=O)N1)C(=O)N[C@@H](CC(C)C)C(=O)O [[K4] NT] on NTS1 (HT-29 cells) (Homo sapiens, UniProt P30989)?
a: 1.4

q: What measured EC50 is associated with CC[C@H](C)[C@H](NC(=O)[C@H](Cc1ccc(O)cc1)NC(=O)[C@@H]1CCCN1C(=O)[C@H](CCCNC(=N)N)NC(=O)[C@H](CCCNC(=N)N)NC(=O)[C@@H]1CCCN1C(=O)[C@H](CCCCN)NC(=O)[C@H](CC(N)=O)NC(=O)[C@H](C)NC(=O)[C@H](Cc1ccc(O)cc1)NC(=O)[C@H](CC(C)C)NC(=O)[C@@H]1CCC(=O)N1)C(=O)N[C@@H](CC(C)C)C(=O)O [[A4] NT] on NTS1 (HT-29 cells) (Homo sapiens, UniProt P30989)?
a: 0.6

----------
biological target: neurotensin receptors (HT-29 cells) (Homo sapiens); type: cell-based
Sequence (P30989 whole entry, looked up): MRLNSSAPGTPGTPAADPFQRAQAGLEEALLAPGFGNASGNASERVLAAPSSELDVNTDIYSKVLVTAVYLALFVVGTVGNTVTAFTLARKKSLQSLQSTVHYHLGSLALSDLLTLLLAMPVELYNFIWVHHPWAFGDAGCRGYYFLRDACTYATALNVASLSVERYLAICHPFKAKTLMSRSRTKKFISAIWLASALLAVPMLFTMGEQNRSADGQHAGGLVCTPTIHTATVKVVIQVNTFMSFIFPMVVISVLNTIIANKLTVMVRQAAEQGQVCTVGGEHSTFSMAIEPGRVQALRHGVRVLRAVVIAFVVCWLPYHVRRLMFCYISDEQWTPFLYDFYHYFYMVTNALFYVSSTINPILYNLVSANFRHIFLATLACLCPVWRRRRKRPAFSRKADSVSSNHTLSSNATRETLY
Where a SMILES comes first, the peptide text is derived from it. [ ]: non-standard residue; d: D form. pGlu = O=C1CC[C@@H](C(=O)O)N1
endpoint_label: DC50
Reply with the number and its unit after it.

q: Sample CC[C@H](C)[C@H](NC(=O)[C@H](Cc1ccc(O)cc1)NC(=O)[C@@H]1CCCN1C(=O)[C@H](CCCCN)NC(=O)[C@H](CCCCN)NC(=O)[C@@H]1CCCN1C(=O)[C@H](CCCCN)NC(=O)[C@H](CC(N)=O)NC(=O)[C@H](CCC(=O)O)NC(=O)[C@H](Cc1ccc(O)cc1)NC(=O)[C@H](CC(C)C)NC(=O)[C@@H]1CCC(=O)N1)C(=O)N[C@@H](CC(C)C)C(=O)O [[K8, K9] NT] ([pGlu]LYENKPKKPYIL-OH) — what was its DC50?
a: 67 nM

q: So what does the record say about DC50 for CC[C@H](C)[C@H](NC(=O)[C@H](Cc1ccc(O)cc1)NC(=O)[C@@H]1CCCN1C(=O)[C@H](CCCNC(=N)N)NC(=O)[C@H](CCCNC(=N)N)NC(=O)[C@@H]1CCCN1C(=O)[C@H](CCCCN)NC(=O)[C@H](CC(N)=O)NC(=O)[C@H](CCCCN)NC(=O)[C@H](Cc1ccc(O)cc1)NC(=O)[C@H](CC(C)C)NC(=O)[C@@H]1CCC(=O)N1)C(=O)N[C@@H](CC(C)C)C(=O)O [[K4] NT] ?
a: 30.5 nM

q: What value of DC50 has been recorded for this entry: CC[C@H](C)[C@H](NC(=O)[C@H](Cc1ccc(O)cc1)NC(=O)[C@@H]1CCCN1C(=O)[C@H](CCCNC(=N)N)NC(=O)[C@H](CCCNC(=N)N)NC(=O)[C@@H]1CCCN1C(=O)[C@H](CCC(=O)O)NC(=O)[C@H](CC(N)=O)NC(=O)[C@H](CCC(=O)O)NC(=O)[C@H](Cc1ccc(O)cc1)NC(=O)[C@H](CC(C)C)NC(=O)[C@@H]1CCC(=O)N1)C(=O)N[C@@H](CC(C)C)C(=O)O [[E6] NT]
a: 57.5 nM

Hey, just so you know, these numbers are from paper PMC4322620.
